System: K-562 leukemia
Procedure Text: NCI tumour cell line growth inhibition, 48 h
Readout Label: TGI

Cc1ccc(NC(=O)C(=O)C2NC(=S)NC2=O)c([N+](=O)[O-])c1 (stereo not drawn) : > 100 µM
COC(=O)c1cc2c3ccccc3n3c(=O)c4cc5cc(OC)c(N(S(=O)(=O)c6ccc(C)cc6)S(=O)(=O)c6ccc(C)cc6)cc5nc4c(n1)c23 : > 100 µM

Would you kindly look at the next entry?
Query :: # query: TGI of entry `O=NNc1cnccn1`
Result :: > 1250 µM

----------
Measured TGI accompanies every entry in the list below.
Test system: CAKI-1 renal
Procedure Text: NCI tumour cell line growth inhibition, 48 h
State just the number; it will be interpreted in µM.

COc1cc(-c2c3c([nH]c(=O)c2C#N)-c2cc([N+](=O)[O-])ccc2CCC3)cc(OC)c1OC : 87.9

Would you kindly look at the next entry?
Query :: Any idea what TGI came out for `O=C1/C(=C/c2ccc([N+](=O)[O-])o2)Oc2ccccc21` on CAKI-1 renal?
Result :: 2.17
